Origin of measurements: the supplement of paper PMC9732359

# procedureText: protein stability index of a GFP-peptide fusion (yeast GPS) (PSI 1-4); higher = more stable; sorted into four equal gates, so the index is relative within each strain
# conditions: san1∆
valueType: protein stability index

[
  {
    "sequenceEntry": "AALDLSHTQNIGHLIKT [SMC2]",
    "testResult": 2.27
  },
  {
    "sequenceEntry": "EETSHLLTVTPGPRLLY [RPN10]",
    "testResult": 2.54
  },
  {
    "sequenceEntry": "IIVPDLIELKSDLLVAP [YML103C/NUP188]",
    "testResult": 1.95
  },
  {
    "sequenceEntry": "KINSWDQVLVKGGEQIS [YJL041W/NSP1]",
    "testResult": 3.29
  },
  {
    "sequenceEntry": "RWDKEEYQSLMSLKDKL [SMC1]",
    "testResult": 3.2
  },
  {
    "sequenceEntry": "KYHNDLIEKEIQPKITE [SMC1]",
    "testResult": 2.71
  },
  {
    "sequenceEntry": "DTIDNVKSKIQDKEGIP [RPS31]",
    "testResult": 3.38
  },
  {
    "sequenceEntry": "SLSIKLATLHYQKKQYK [RPN6]",
    "testResult": 1.34
  },
  {
    "sequenceEntry": "TLRCSVVEACGNIVAEL [YCS4]",
    "testResult": 2.17
  },
  {
    "sequenceEntry": "IGAAELNENARELEQIK [SNF12]",
    "testResult": 2.84
  },
  {
    "sequenceEntry": "SVQDLGGSATARHKKKV [YML031W/NDC1]",
    "testResult": 1.57
  },
  {
    "sequenceEntry": "FGNSLSNTVNANNYSSN [YDL088C/ASM4]",
    "testResult": 3.08
  },
  {
    "sequenceEntry": "VFLSNLVETCLNDLVES [BRR2]",
    "testResult": 1.57
  },
  {
    "sequenceEntry": "YINVNPQEETITFLIEK [ECM29]",
    "testResult": 2.91
  },
  {
    "sequenceEntry": "NEDENIQLIKILNSHFD [YJL041W/NSP1]",
    "testResult": 3.14
  },
  {
    "sequenceEntry": "LGSGSLAAMAVLESHWK [PUP1]",
    "testResult": 2.64
  },
  {
    "sequenceEntry": "LEASYSKSYTPRKLVLS [SMC4]",
    "testResult": 2.11
  }
]

----------
protein stability index listing for selected sequences.
# procedureText: protein stability index of a GFP-peptide fusion (yeast GPS) (PSI 1-4); higher = more stable; sorted into four equal gates, so the index is relative within each strain
# conditions: pdr5∆

[
  {
    "sequenceEntry": "EHHSSVKYASPNLNMKY [FAS2]",
    "protein stability index": 3
  },
  {
    "sequenceEntry": "TTSERVSNENKKNIDYQ [RRI1]",
    "protein stability index": 3.03
  },
  {
    "sequenceEntry": "WLKNKFAEENITHKLTK [BRR2]",
    "protein stability index": 3.03
  },
  {
    "sequenceEntry": "QSYGGRPYGVGLLIIGY [PRE5]",
    "protein stability index": 3.01
  },
  {
    "sequenceEntry": "ITRFGLSKMRDSVLQLA [RPO31]",
    "protein stability index": 2.96
  }
]

----------
# procedureText: protein stability index of a GFP-peptide fusion (yeast GPS) (PSI 1-4); higher = more stable; sorted into four equal gates, so the index is relative within each strain
# conditions: pdr5∆
valueType: protein stability index

[
  {
    "sequenceEntry": "EDIIKRTSPIDNVSNTH [NUT2]",
    "testResult": 2.88
  },
  {
    "sequenceEntry": "RIARALKQEGAANKTVV [RPL18A]",
    "testResult": 3.39
  },
  {
    "sequenceEntry": "LDVDPAKRIRVSHHATT [RPB2]",
    "testResult": 3.04
  },
  {
    "sequenceEntry": "IIAELSFLKVDPDLGLD [YJL039C/NUP192]",
    "testResult": 3.26
  },
  {
    "sequenceEntry": "GKTGLSNMILGSVELST [YML103C/NUP188]",
    "testResult": 2.57
  },
  {
    "sequenceEntry": "FTIRGFKQKLNELLKCK [MTW1]",
    "testResult": 2.92
  },
  {
    "sequenceEntry": "VRNACKRLIAHDWLNAL [YCG1]",
    "testResult": 2.97
  },
  {
    "sequenceEntry": "YGESDIHFREHQSELII [YMR129W/POM152]",
    "testResult": 2.89
  },
  {
    "sequenceEntry": "AYLLLVQGGNAAPSAAD [RPP2B]",
    "testResult": 1.98
  },
  {
    "sequenceEntry": "YVDPETTYTYQQPNPLQ [ROX3]",
    "testResult": 2.31
  },
  {
    "sequenceEntry": "SREIAQPSSSRYNGGND [SMB1]",
    "testResult": 3.22
  },
  {
    "sequenceEntry": "LGGPITKESQPTIEEDL [FAS2]",
    "testResult": 3.19
  },
  {
    "sequenceEntry": "WPTTHKYPLGHFVRDLG [DIS3]",
    "testResult": 2.58
  },
  {
    "sequenceEntry": "SGYNQEDSMIMNQSSID [RPB2]",
    "testResult": 2.67
  },
  {
    "sequenceEntry": "DVSRVAAVETLYQDMAA [RPL20A]",
    "testResult": 2.67
  },
  {
    "sequenceEntry": "GTPKTDSFIFDGTAKEV [MED4]",
    "testResult": 2.43
  },
  {
    "sequenceEntry": "LLEQDTSTEKLYKLNDK [PRE9]",
    "testResult": 3.08
  },
  {
    "sequenceEntry": "ESYNQNDWKLETERLIS [SIN4]",
    "testResult": 3.21
  },
  {
    "sequenceEntry": "IDRNLKCQTCQEGMNEC [RPO21]",
    "testResult": 1.38
  },
  {
    "sequenceEntry": "RIGTIVHKERHDGGFDL [RPS4A]",
    "testResult": 2.54
  },
  {
    "sequenceEntry": "VLARISPELSLQRHLSL [RRP43]",
    "testResult": 2.04
  },
  {
    "sequenceEntry": "SVQDLGGSATARHKKKV [YML031W/NDC1]",
    "testResult": 1.75
  },
  {
    "sequenceEntry": "PNPNNMKTVQSPMGAQP [GAL11]",
    "testResult": 2.96
  },
  {
    "sequenceEntry": "TDDADDHINWEHIKQDY [NSL1]",
    "testResult": 3.4
  },
  {
    "sequenceEntry": "LAHSQHRCAIRSGALIK [SSN2]",
    "testResult": 1.22
  }
]

----------
# procedureText: protein stability index of a GFP-peptide fusion (yeast GPS) (PSI 1-4); higher = more stable; sorted into four equal gates, so the index is relative within each strain
# conditions: san1∆
Recorded protein stability index determines the group label, using class A: < 2; class B: ≥ 2 and < 3; class C: ≥ 3

[
  {
    "sequenceEntry": "DSTNLSDDAAQFMKRFP [ECM29]",
    "answerLabel": "class A"
  },
  {
    "sequenceEntry": "YSKAAEPHAVSLAWSAD [ASC1]",
    "answerLabel": "class B"
  },
  {
    "sequenceEntry": "EEQLDALECRLASAIAS [CSN12]",
    "answerLabel": "class B"
  },
  {
    "sequenceEntry": "TQMDGFDQSTNVKVIMA [RPT3]",
    "answerLabel": "class A"
  },
  {
    "sequenceEntry": "TTDDKSMDTKKKHKQKK [BRN1]",
    "answerLabel": "class C"
  },
  {
    "sequenceEntry": "TIEQSPRMIELMEFLCV [ECM29]",
    "answerLabel": "class C"
  },
  {
    "sequenceEntry": "ASTPSIRPDGRLPHQFR [RRP42]",
    "answerLabel": "class B"
  },
  {
    "sequenceEntry": "GRTGNGNMGITTEMLDK [MED6]",
    "answerLabel": "class C"
  },
  {
    "sequenceEntry": "SGNSANNMNVNMNLNPQ [GAL11]",
    "answerLabel": "class B"
  },
  {
    "sequenceEntry": "KSLDAETEAEEDHMLKK [RPO21]",
    "answerLabel": "class C"
  },
  {
    "sequenceEntry": "RLISSKMPGGFTITVAR [FAS2]",
    "answerLabel": "class A"
  },
  {
    "sequenceEntry": "KILPTDIQLKNLFPLKP [SRP68]",
    "answerLabel": "class B"
  },
  {
    "sequenceEntry": "KRFNIGADPNYRTYSER [RPR2]",
    "answerLabel": "class B"
  },
  {
    "sequenceEntry": "LRNYLTPNVREEKQKSY [PUP1]",
    "answerLabel": "class C"
  },
  {
    "sequenceEntry": "VGVVFGSGAANENPYNN [COR1]",
    "answerLabel": "class C"
  },
  {
    "sequenceEntry": "EKADYERELISNIEQTE [YIL149C/MLP2]",
    "answerLabel": "class C"
  },
  {
    "sequenceEntry": "TNAGYTIELAGGGYFSA [FAS1]",
    "answerLabel": "class A"
  },
  {
    "sequenceEntry": "DQHVINILWAIYNSASK [YCS4]",
    "answerLabel": "class A"
  },
  {
    "sequenceEntry": "AMSTVTLGVVGKSEKLS [SKI6]",
    "answerLabel": "class B"
  },
  {
    "sequenceEntry": "TASKIIVIDVDYNKKQD [MED1]",
    "answerLabel": "class B"
  },
  {
    "sequenceEntry": "CRNILGVTSLIKNLGLP [RPP1]",
    "answerLabel": "class A"
  },
  {
    "sequenceEntry": "TQLDDLQHELMISIIKL [YML103C/NUP188]",
    "answerLabel": "class B"
  },
  {
    "sequenceEntry": "LGSLTVEDYLSSVTSDS [RPC82]",
    "answerLabel": "class B"
  },
  {
    "sequenceEntry": "KKVGITGKYGVRYGSSL [RPL43A]",
    "answerLabel": "class C"
  }
]
